This collection of values is drawn from ChEMBL document CHEMBL5291721.

target: Muscarinic acetylcholine receptor M2 (Homo sapiens, UniProt P08172); assay type: functional, cell-based; further: assay procedure not described here
Sequence (P08172 whole entry): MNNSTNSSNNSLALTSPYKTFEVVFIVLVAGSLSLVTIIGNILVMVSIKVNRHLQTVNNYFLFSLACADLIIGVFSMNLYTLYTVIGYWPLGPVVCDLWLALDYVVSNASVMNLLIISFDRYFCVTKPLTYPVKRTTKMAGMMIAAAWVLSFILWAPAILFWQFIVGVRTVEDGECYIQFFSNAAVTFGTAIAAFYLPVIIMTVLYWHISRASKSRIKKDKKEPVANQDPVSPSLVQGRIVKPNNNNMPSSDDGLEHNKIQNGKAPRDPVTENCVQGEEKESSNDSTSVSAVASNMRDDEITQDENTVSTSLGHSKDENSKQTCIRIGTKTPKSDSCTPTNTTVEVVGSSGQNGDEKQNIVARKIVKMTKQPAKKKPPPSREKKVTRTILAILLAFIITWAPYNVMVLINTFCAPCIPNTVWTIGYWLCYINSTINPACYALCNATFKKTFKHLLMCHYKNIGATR
# AC50 values compiled below

The examples below pair each entry with its known result.
molecule | subject.of.test | AC50
CC/C(=C(\c1ccccc1)c1ccc(OCCN(C)C)cc1)c1ccccc1 | Muscarinic acetylcholine receptor M2 (Homo sapiens, UniProt P08172) | > 10 µM
CCN(CC)C(=O)N[C@H]1C[C@@H]2c3cccc4[nH]cc(c34)C[C@H]2N(C)C1 [TERGURIDE] | Muscarinic acetylcholine receptor M2 (Homo sapiens, UniProt P08172) | > 30 µM
C[C@@H]1O[C@@H](O[C@@H]2C=C3CC[C@@H]4[C@H](CC[C@]5(C)[C@@H](c6ccc(=O)oc6)CC[C@]45O)[C@@]3(C)CC2)[C@H](O)[C@H](O)[C@H]1O | Muscarinic acetylcholine receptor M2 (Homo sapiens, UniProt P08172) | > 30 µM
CC(=O)O[C@H]1C[C@@H]2CC[C@@H]3[C@H](CC[C@@]4(C)[C@H]3C[C@H]([N+]3(C)CCCCC3)[C@@H]4OC(C)=O)[C@@]2(C)C[C@@H]1N1CCCCC1 | Muscarinic acetylcholine receptor M2 (Homo sapiens, UniProt P08172) | > 30 µM
Cc1c(OCC(F)(F)F)ccnc1C[S+]([O-])c1nc2ccccc2[nH]1 (configuration not stated) | Muscarinic acetylcholine receptor M2 (Homo sapiens, UniProt P08172) | > 10 µM

Report AC50 for CN1C(=O)C(O)N=C(c2ccccc2)c2cc(Cl)ccc21 (configuration not stated) please. > 10 µM

Report AC50 for C[C@](N)(Cc1ccc(O)c(O)c1)C(=O)O please. > 10 µM
